Molecular target: Histamine H1 receptor (Rattus norvegicus, UniProt P31390)
Sequence (P31390 whole entry): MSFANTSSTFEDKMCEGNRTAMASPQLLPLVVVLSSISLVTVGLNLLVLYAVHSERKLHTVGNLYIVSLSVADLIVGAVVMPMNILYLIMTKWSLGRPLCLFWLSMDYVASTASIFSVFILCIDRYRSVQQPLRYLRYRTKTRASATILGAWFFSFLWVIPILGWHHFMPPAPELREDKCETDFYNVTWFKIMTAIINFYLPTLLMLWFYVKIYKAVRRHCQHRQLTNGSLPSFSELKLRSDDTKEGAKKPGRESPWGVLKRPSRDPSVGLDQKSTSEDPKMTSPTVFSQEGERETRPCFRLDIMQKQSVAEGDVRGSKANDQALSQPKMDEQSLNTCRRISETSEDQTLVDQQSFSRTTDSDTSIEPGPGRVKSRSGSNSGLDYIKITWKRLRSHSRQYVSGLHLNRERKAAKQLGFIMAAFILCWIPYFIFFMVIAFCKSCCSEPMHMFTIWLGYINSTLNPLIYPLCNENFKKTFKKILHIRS
Listed here: items and their measured pIC50.
In textbook form, pIC50 equals minus log to base ten of the concentration in mol/L.

Look over these answered cases.
{"compound": "CCN(CC)CCOC(=O)C(c1ccccc1)c1ccccc1", "system_name": "Histamine H1 receptor (Rattus norvegicus, UniProt P31390)", "pIC50": 4.77}
{"compound": "CN(C)CC/C=C1/c2ccccc2Sc2ccc(Cl)cc21", "system_name": "Histamine H1 receptor (Rattus norvegicus, UniProt P31390)", "pIC50": 8.97}
{"compound": "CN1[C@@H](CC(=O)c2ccccc2)CCC[C@H]1C[C@H](O)c1ccccc1", "system_name": "Histamine H1 receptor (Rattus norvegicus, UniProt P31390)", "pIC50": 4.95}

Continue with the compound presented below.
Memo: OC(CCN1CCCC1)(c1ccccc1)C1CCCCC1 (centres undefined) , reported pIC50: 5.17

Data credit: ChEMBL document CHEMBL2163313
